experiment: Binding affinity to rabbit asialoglycoprotein receptor by SPR assay; parameters: species or system Oryctolagus cuniculus
pKd: −log10 of the molar value.
Please use yes (1) whenever pKd is not below 9, and no (0) whenever it is.

For orientation, consider the following solved cases.
CC(=O)N[C@@H]1[C@@H](O)[C@@H](O)[C@@H](CO)O[C@H]1n1cc(CCCC(=O)O[C@@H](C(=O)O[C@H]2C[C@@]3(O)[C@@H](OC(=O)c4ccccc4)[C@@H]4[C@]5(OC(C)=O)CO[C@@H]5C[C@H](O)[C@@]4(C)C(=O)[C@H](OC(C)=O)C(=C2C)C3(C)C)[C@@H](NC(=O)c2ccccc2)c2ccccc2)nn1 : no (0)
C=CCO[C@@H]1O[C@H](Cn2cc(CCCC(=O)O[C@H]3C[C@H]4OC[C@@]4(OC(C)=O)[C@H]4[C@H](OC(=O)c5ccccc5)[C@]5(O)C[C@H](OC(=O)[C@H](OC(=O)CCCc6cn(C[C@H]7O[C@@H](OCC=C)[C@H](NC(C)=O)[C@@H](O)[C@H]7O)nn6)[C@@H](NC(=O)c6ccccc6)c6ccccc6)C(C)=C([C@@H](OC(C)=O)C(=O)[C@]34C)C5(C)C)nn2)[C@H](O)[C@H](O)[C@H]1NC(C)=O : yes (1)
CC(=O)N[C@H]1[C@H](OCCCCCCNC(=O)CCOCC(COCCC(=O)NCCCCCCO[C@@H]2O[C@H](CO)[C@H](O)[C@H](O)[C@H]2NC(C)=O)(COCCC(=O)NCCCCCCO[C@@H]2O[C@H](CO)[C@H](O)[C@H](O)[C@H]2NC(C)=O)NC(=O)CCCCCCCCCCN=[N+]=[N-])O[C@H](CO)[C@H](O)[C@@H]1O : no (0)
C=CCO[C@@H]1O[C@H](Cn2cc(CCCC(=O)O[C@@H](C(=O)O[C@H]3C[C@@]4(O)[C@@H](OC(=O)c5ccccc5)[C@@H]5[C@]6(OC(C)=O)CO[C@@H]6C[C@H](O)[C@@]5(C)C(=O)[C@H](OC(C)=O)C(=C3C)C4(C)C)[C@@H](NC(=O)c3ccccc3)c3ccccc3)nn2)[C@H](O)[C@H](O)[C@H]1NC(C)=O : yes (1)

Test whether the compound "CC(=O)N[C@H]1[C@H](OCCn2cc(CCCC(=O)O[C@@H](C(=O)O[C@H]3C[C@@]4(O)[C@@H](OC(=O)c5ccccc5)[C@@H]5[C@]6(OC(C)=O)CO[C@@H]6C[C@H](O)[C@@]5(C)C(=O)[C@H](OC(C)=O)C(=C3C)C4(C)C)[C@@H](NC(=O)c3ccccc3)c3ccccc3)nn2)O[C@H](CO)[C@H](O)[C@@H]1O" records pKd of 9 or higher.
no (0)
